Tested on: human osteoclast cultures
test-details: Osteoclast formation from bone marrow cells of multiple myeloma patients
Assay type: cell-based
reported-conditions: Homo sapiens, Osteoclast, 504 h; treatment for 3 weeks
Procedure: Non-adherent mononuclear bone marrow cells from multiple myeloma patients were cultured in the presence of macrophage colony stimulating factor (M-CSF) and Receptor Activator for Nuclear Factor κ[…] (RANKL) for three weeks.
measurement-type: IC50 (nM)
Answers are plain numbers, in nM.

# IC50 (molecule: CC(=O)c1c(C)c2cnc(Nc3ccc(N4CCNCC4)cn3)nc2n(C2CCCC2)c1=O ) is 50
